- study-target: Eukaryotic translation initiation factor 4E (Homo sapiens, UniProt P06730)
- Sequence (P06730 whole entry): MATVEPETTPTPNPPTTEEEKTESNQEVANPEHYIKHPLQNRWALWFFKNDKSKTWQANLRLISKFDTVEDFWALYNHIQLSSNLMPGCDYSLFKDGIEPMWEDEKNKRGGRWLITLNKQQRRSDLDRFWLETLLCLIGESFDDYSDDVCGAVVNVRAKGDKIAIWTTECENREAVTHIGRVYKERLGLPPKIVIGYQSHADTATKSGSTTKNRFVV
- method-notes: Inhibition of m7GDP fluorescent probe binding to recombinant eIF4E (unknown origin) assessed as dissociation constant by fluorescence polarization assay
experimental-readout: Kd (µM)

CC(C)CNC(=S)N(Cc1ccccc1)Cc1cc2cc3c(cc2[nH]c1=O)OCO3 :: 57.8
Nc1nc2c(c(=O)[nH]1)[n+](Cc1ccccc1)cn2[C@@H]1O[C@H](CNS(=O)(=O)C(F)(F)F)[C@@H](O)[C@H]1O :: 56.5
